The measured values listed here are drawn from PubChem BioAssay (NCI).

Test system: CAKI-1 renal
Test: NCI-60 one-dose screen, 48 h (100 = growth as untreated, 0 = no growth, -100 = all killed)
Settings: 10 µM unless noted
Experimental: Growth inhibition of the CAKI-1 human tumor cell line is measured as a screen for anti-cancer activity. Cells are grown in 96 well plates and exposed to the test compound for 48 hours. Compounds are tested at a single concentration, which is 10^-5 M for most compounds. The reported endpoint is percent growth (GI% or GIPRCNT), where numbers from 0 - 100% represent growth inhibition, and numbers from -100% - 0 represent cell death. For example, a value of 40 represents 60% growth inhibition. […]
About 83,000 compounds went through this panel and 20% of them were active in at least one assay; those are over-represented in the sample as a whole.
measure_name: growth (%)

| molecule | experimental_result |
| --- | --- |
| CN1C(=O)/C(=C\c2nc([P+](c3ccccc3)(c3ccccc3)c3ccccc3)c(N3CCOCC3)o2)SC1=S | 91.5 |
| COCCn1cc(-c2csc(-c3cn(C)c4ccc(Br)cc34)n2)c2cccnc21 | 65 |
| CC1CCN(S(=O)(=O)c2ccc(S(=O)(=O)N3CCCC(c4nc5c(nnn5Cc5cccc(Cl)c5)c(=O)[nH]4)C3)cc2)CC1 (centres undefined) | 22.2 |
| COC(=O)c1c(C)c2n(c1C)C(=O)C(c1ccccc1)=C2 | 33.1 |
| C=CCc1c(O)c(C(=O)/C=C/c2ccccc2)c(OC)c2ccoc12 | 13.1 |
| CCOC(=O)c1cc(C(=O)c2cc(OC)c(OC)c(OC)c2)n2ncccc12 | 38.1 |
| COc1ccc(-c2cc(-c3cc(OC)c(OC)c(OC)c3)c(C#N)c(=O)n2CCCCC(=O)NO)cc1 | 46.3 |
| CS(=O)(=O)c1ccc(-c2cnn3ccc(-c4cccc(S(=O)(=O)C5CC5)c4)nc23)cc1 | 52.2 |
| CS(=O)(=O)Nc1cc(-c2ccc3ncnc(Nc4ccc5c(cnn5Cc5ccc(F)cc5)c4)c3c2)cnc1Cl | 25.7 |

###

Measured growth by item
Tested on: MALME-3M melanoma
Assay: NCI-60 one-dose screen, 48 h (100 = growth as untreated, 0 = no growth, -100 = all killed)
Conditions: 10 µM unless noted
This is part of a sample that, as a whole, favours compounds with a hit. Of some 83,000 tested, about 20% had one in any assay. The source made the active and inactive calls. Rule for the calls: active = growth percent below 10; inactive = the rest.
measure_name: growth

| molecule | experimental_result |
| --- | --- |
| Cc1ccccc1/C=C/C(=O)c1cccc(OCCCOc2cccc(C(=O)/C=C/c3ccccc3C)c2)c1 | 108% [3 µM] (inactive) |
| Fc1ccc(CNc2c3ccccc3nc3ccccc23)c(F)c1 | 69.5% (inactive) |
| COc1c(B(O)O)cccc1-c1nc2c(F)cc3[nH]ncc3c2c2c1CCCC2 | -15.1% (active) |
| CN(C)CC(C)(C)C(=O)/C=C/c1ccccc1 | -69.5% [25 µM] (active) |
| N#Cc1c(-c2ccc(Cl)cc2)c(C#N)c2c(C#N)c(N)nn2c1N | 106% (inactive) |
| CCC(=O)Oc1ccc(-c2ccccc2)cc1Br | 109% (inactive) |
| COc1ccc(F)cc1/C=C/C(=O)/C=C(/C=C/c1cc(F)ccc1OC)OB(F)F | 5.69% (active) |
| CCCC/C=C/[C@@H]1C[C@H]1CCO | 93.6% (inactive) |
| CN(C)S(=O)(=O)c1cccc(C(=O)Nc2nc(-c3ccc(F)c(F)c3)cs2)c1 | 90.9% (inactive) |
| CC(C)(Sc1cc(C(C)(C)C)c(OC(=O)CCCC(=O)O)c(C(C)(C)C)c1)Sc1cc(C(C)(C)C)c(OC(=O)CCCC(=O)O)c(C(C)(C)C)c1 | 46.2% (inactive) |
| CSc1nc2ccccc2cc1/C=C1/C=C(c2ccccc2)NC1=O | 86.9% (inactive) |
| c1ccc(Cn2cc3c(c2)-c2oncc2CC3)cc1 | 86% (inactive) |
| C=CC(=O)N1CCN(c2cccc(Oc3nccc(Nc4nnc(-c5ccc(Br)cc5)s4)n3)c2)CC1 | 65.2% (inactive) |
| Cn1c(I)c(C#CCO[Si](C)(C)C(C)(C)C)c(=O)[nH]c1=O | -51.2% (active) |
| COc1cc(-c2cncn2-c2ccc(-c3nc4ccc(F)cc4s3)cc2)ccc1F | 99.3% (inactive) |
| C=C1CC[C@@H]2[C@](C)(COC(C)=O)[C@H](OC(C)=O)CC[C@@]2(C)[C@@H]1CC(Nc1ccc(S(=O)(=O)Nc2ncccn2)cc1)C1=CCOC1=O (stereo not given in full) | -4.93% (active) |
| Cc1cc(C(=O)Nc2ncc(Cc3cccc(C(F)(F)F)c3)s2)c2ccccc2n1 | 26.8% (inactive) |
| Cc1nc2sc(C(=O)Nc3cccc(Br)c3)c(N)c2cc1C(O)c1ccccc1 (stereo not given) | 55% (inactive) |
| Cn1cc(-c2ccc3nc(-c4ccc(CC(=O)ONc5cc(C(C)(C)C)on5)cc4)cnc3c2)cn1 | 22.4% (inactive) |
| COC12C=C/C(=C(/C(=O)OCc3ccncc3)C(=O)CCCCCCCCC3(OC)C=C/C(=C(/C(=O)OCc4ccncc4)C(=O)CCCCCCCC1)O3)O2 | -67.7% (active) |
| CC(C)c1ccc(-n2c(=S)[nH]c3sc4cc(O)ccc4c3c2=O)cc1 | 87.1% (inactive) |
| CS(=O)(=O)Nc1cc(-c2ccc3ncnc(Nc4ccc5c(cnn5Cc5cccc(F)c5)c4)c3c2)cnc1Cl | -36.1% (active) |
| Oc1c(Br)cc(Br)c2ccc(Cn3cc(-c4ccc(C(F)(F)F)cc4)nn3)nc12 | 16.7% (inactive) |
| Cc1c(O)cc(-c2cnc(Nc3ccccc3)s2)c(O)c1C | 107% (inactive) |
| COc1cc2c(c(OC)c1OC)CCC(c1cccc(C(=O)Nc3cccc(Cl)c3)c1)O2 (stereo not given) | 75.2% (inactive) |
| N=C(N)c1ccc(-c2ccc(-c3ccc(Cl)cc3Cl)s2)cc1 | 73.9% (inactive) |
| COc1cc2nc3cc([N+](=O)[O-])ccc3c(NCCNCC(C)O)c2cc1OC (stereo not given) | -74.1% (active) |
| COC(=O)C1Cc2ccccc2CN1C(=O)c1ccc2c(c1)Cc1ccccc1-2 (stereo not given) | 17.7% [50 µM] (inactive) |
| O=C1c2c(c3c4ccccc4[nH]c3c3ccc4ccccc4c23)C(=O)N1CCN1CCOCC1 | 44.5% (inactive) |
| Cc1cc(C)c2c(c1)N(C)c1ncnc(-n3cnc4cc(C)ccc43)c1CC2C (stereo not given) | 45.2% (inactive) |
| O=C(NNC(=O)c1ccc(NC(=O)c2ccccn2)cc1)Nc1ccc([N+](=O)[O-])cc1 | 98% (inactive) |
| C=C(C)[C@@H]1CC[C@]2(CO)CC[C@]3(C)[C@H](CC[C@@H]4[C@@]5(C)CC[C@H](NCO)C(C)(C)[C@@H]5CC[C@]43C)[C@@H]12 | -81.2% (active) |
| Cc1cc(N2CCCCC2)cc(C)c1-c1csc(NC(=O)c2ccncc2)n1 | 59.7% (inactive) |
| NC(=O)CSc1oc(-c2ccccc2)nc1S(=O)(=O)c1ccc(Br)cc1 | 59.4% (inactive) |
| c1ccc2cc(C[n+]3ccn(CCCCCCCCCCn4cc[n+](Cc5ccc6ccccc6c5)c4)c3)ccc2c1 | -20.4% (active) |
| CCOC(=O)NC(C)C | 104% (inactive) |
| CN(C)CC1CCC(CN(C)C)C1=O (stereo not given) | 115% (inactive) |
| Cn1ccnc1C(=O)/C=C/c1ccc(CC(=O)Nc2cc(C(F)(F)F)cc(C(F)(F)F)c2)cc1 | 77.9% (inactive) |
| NC(=O)C(=O)c1ccccc1NC=O | 96.8% (inactive) |
| CCc1ncnc2c1ccn2C(C)c1ccc(OC)c(F)c1 (stereo not given) | 74.9% (inactive) |
